biological target: human GLP-1 receptor (human, UniProt P43220 24-463); experiment: cell-based or functional assay
Bridges are numbered along the chain shown (N, C = ends). Where no end group is shown, it is not given here. [ ]: non-standard residue; d: D form. The star is where a group is joined. Acetyl(2-(4-imidazolyl)) = O=C(Cc1c[nH]cn1)*; Aib = CC(C)(N)C(=O)O
The following binders are shown together with reported In vitro activity relative to native peptide (%) vs. GLP-1 values.
Property Name: In vitro activity relative to native peptide (%) vs. GLP-1

Binder: H[Aib]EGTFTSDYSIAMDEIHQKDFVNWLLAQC (bridge 16-20) [triple agonist of SEQ ID NO: 53]
Reported Measurement: 161
//
Binder: [Acetyl(2-(4-imidazolyl))][Aib]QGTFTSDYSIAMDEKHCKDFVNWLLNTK (bridge 16-20; not fully specified) [triple agonist of SEQ ID NO: 60]
Reported Measurement: 106
//
Binder: {Acetyl(2-(4-imidazolyl))}-[Aib]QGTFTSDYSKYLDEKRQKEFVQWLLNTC (bridge 15-19) [triple agonist of SEQ ID NO: 81]
Reported Measurement: 7.8
//
Binder: [Acetyl(2-(4-imidazolyl))][Aib]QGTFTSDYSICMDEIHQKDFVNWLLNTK (bridge 16-20; not fully specified) [triple agonist of SEQ ID NO: 49]
Reported Measurement: 29.8
//
Binder: {Acetyl(2-(4-imidazolyl))}-[Aib]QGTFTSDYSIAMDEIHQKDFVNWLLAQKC (bridge 15-19) [triple agonist of SEQ ID NO: 92]
Reported Measurement: 0.8
//
Binder: H[Aib]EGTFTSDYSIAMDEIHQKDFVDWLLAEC (bridge 16-20) [triple agonist of SEQ ID NO: 54]
Reported Measurement: 30.6
//
Binder: Y[Aib]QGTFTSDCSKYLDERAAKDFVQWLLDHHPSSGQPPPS (bridge 16-20) [triple agonist of SEQ ID NO: 72]
Reported Measurement: 11.5
//
Binder: H[Aib]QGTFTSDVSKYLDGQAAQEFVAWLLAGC [triple agonist of SEQ ID NO: 9]
Reported Measurement: 32.1
//
Binder: Y[Aib]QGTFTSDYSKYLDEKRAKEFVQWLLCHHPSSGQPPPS (bridge 16-20) [triple agonist of SEQ ID NO: 95]
Reported Measurement: 2.1
//
Binder: {Acetyl(2-(4-imidazolyl))}-[Aib]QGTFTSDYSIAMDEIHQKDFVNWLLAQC (bridge 15-19) [triple agonist of SEQ ID NO: 85]
Reported Measurement: 4.3
//
Binder: {Acetyl(2-(4-imidazolyl))}-[Aib]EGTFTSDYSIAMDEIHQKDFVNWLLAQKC (bridge 15-19) [triple agonist of SEQ ID NO: 90]
Reported Measurement: 7.4
